- tgt: NAD-dependent protein deacetylase sirtuin-1 (Homo sapiens)
- Sequence (whole entry): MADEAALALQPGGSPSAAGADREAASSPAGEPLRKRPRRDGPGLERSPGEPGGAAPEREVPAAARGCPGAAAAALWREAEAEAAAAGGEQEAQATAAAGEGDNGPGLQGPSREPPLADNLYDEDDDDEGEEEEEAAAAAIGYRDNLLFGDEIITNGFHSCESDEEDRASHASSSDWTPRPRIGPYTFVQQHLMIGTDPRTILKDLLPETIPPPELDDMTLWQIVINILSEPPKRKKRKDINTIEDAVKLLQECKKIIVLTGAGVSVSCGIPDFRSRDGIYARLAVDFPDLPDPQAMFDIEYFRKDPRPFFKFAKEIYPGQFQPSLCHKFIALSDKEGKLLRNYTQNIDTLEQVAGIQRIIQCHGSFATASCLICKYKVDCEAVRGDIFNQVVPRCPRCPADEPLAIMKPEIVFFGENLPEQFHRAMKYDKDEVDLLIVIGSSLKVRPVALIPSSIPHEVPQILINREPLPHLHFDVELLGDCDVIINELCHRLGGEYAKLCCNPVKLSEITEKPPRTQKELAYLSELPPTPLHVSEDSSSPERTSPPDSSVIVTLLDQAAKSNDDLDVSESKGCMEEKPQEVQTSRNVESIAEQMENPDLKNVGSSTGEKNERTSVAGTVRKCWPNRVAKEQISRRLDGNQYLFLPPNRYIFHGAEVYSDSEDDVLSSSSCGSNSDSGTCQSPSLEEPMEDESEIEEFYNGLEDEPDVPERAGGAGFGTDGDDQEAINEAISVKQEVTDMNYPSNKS
- measurement notes: Inhibition of SIRT1 in human HCT116 cells assessed as increase in acetylated p53 K382 level at 25 uM after 6 hrs by Western blot analysis
- Type: cell-based
Calls of active or inactive are those of the source. No cut-off for these calls is given here.
Hi! Could you answer with just one of these? active, inactive

CCCNC(=S)NCCCC[C@H](NC(=O)OCc1ccccc1)C(=O)Nc1cccc(O)c1 | inactive
NC(=O)C1CCCc2c1[nH]c1ccc(Cl)cc21 (stereo unspecified) | active
CCCCCCCCCCNC(=S)NCCCC[C@H](NC(=O)OCc1ccccc1)C(=O)Nc1ccccc1 | inactive
CCCCCCCCCCNC(=S)NCCCC[C@H](NC(=O)OCc1ccccc1)C(=O)Nc1cccc(O)c1 | active
CCCCCCCCNC(=S)NCCCC[C@H](NC(=O)OCc1ccccc1)C(=O)Nc1ccccc1 | inactive

# input for lookup
input: // param item: CCCCCNC(=S)NCCCC[C@H](NC(=O)OCc1ccccc1)C(=O)Nc1cccc(O)c1 ; yields the recorded call
output: active

----------
- tgt: NAD-dependent protein deacetylase sirtuin-2 (Homo sapiens)
- Sequence (Q8IXJ6 whole entry, the tested form may be a part): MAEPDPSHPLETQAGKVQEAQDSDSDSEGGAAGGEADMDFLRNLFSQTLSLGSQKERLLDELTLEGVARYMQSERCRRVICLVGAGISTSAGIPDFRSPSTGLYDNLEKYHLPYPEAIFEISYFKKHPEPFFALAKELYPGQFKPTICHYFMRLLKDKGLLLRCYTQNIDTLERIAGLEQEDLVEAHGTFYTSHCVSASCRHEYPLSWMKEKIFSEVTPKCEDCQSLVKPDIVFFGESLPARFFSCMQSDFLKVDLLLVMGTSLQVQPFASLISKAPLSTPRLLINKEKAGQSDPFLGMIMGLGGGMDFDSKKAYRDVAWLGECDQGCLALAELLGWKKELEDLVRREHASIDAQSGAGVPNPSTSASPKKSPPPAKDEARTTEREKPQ
- measurement notes: Inhibition of recombinant human N-terminal His6-tagged/SUMO-fused SIRT2 (38 to 356 residues) expressed in Escherichia coli BL21 assessed as reduction in deacetylase activity using acetylated H3K9 as substrate preincubated for 15 mins followed by substrate addition and measured after 6 mins by UV-HPLC analysis
pIC50: −log10 of the molar value.
property measured: pIC50

CCCCCCCCNC(=S)NCCCC[C@H](NC(=O)OCc1ccccc1)C(=O)Nc1cccc(O)c1 | 6.92
CCCCCCCCNC(=S)NCCCC[C@H](NC(=O)OCc1ccccc1)C(=O)Nc1ccccc1 | 7.21
CCCCCCCCCCNC(=S)NCCCC[C@H](NC(=O)OCc1ccccc1)C(=O)Nc1ccccc1 | 6.82
CCCCCNC(=S)NCCCC[C@H](NC(=O)OCc1ccccc1)C(=O)Nc1cccc(O)c1 | 6.00
CCCCCCCCCCCCNC(=S)NCCCC[C@H](NC(=O)OCc1ccccc1)C(=O)Nc1ccccc1 | 7.09

[I] CCCCCCCNC(=S)NCCCC[C@H](NC(=O)OCc1ccccc1)C(=O)Nc1ccccc1
[II] CCCCCCCCCCCCNC(=S)NCCCC[C@H](NC(=O)OCc1ccccc1)C(=O)Nc1cccc(O)c1
[III] CCCCCCNC(=S)NCCCC[C@H](NC(=O)OCc1ccccc1)C(=O)Nc1ccccc1
[IV] CCCCCCCCCCNC(=S)NCCCC[C@H](NC(=O)OCc1ccccc1)C(=O)Nc1cccc(O)c1
input: Kindly order the items shown according to pIC50, from the highest value down. Enter labels, ranked according to the request.
output: IV, II, I, III
(IV: 7.44, II: 7.22, I: 6.80, III: 6.19)

The values you see were collected from ChEMBL document CHEMBL4433206.
